# Tested on: U2OS
# measurement description: Multiplex assay against U2OS
# Type: toxicity, cell-based
# cond: human, 12 h, 1 µM, compound concentration 1 uM, replicate 1
endpoint label: Population Healthy Nuclei (%)
// note: answer is a bare numeric in %

Given COc1cc2c(NC3CCN(C(C)C)CC3)nc(N3CCC(F)(F)CC3)nc2cc1OCCCN1CCCC1 , state its recorded Population Healthy Nuclei (%).
72

Dear colleague, I am looking for the recorded Population Healthy Nuclei (%) of the following compound: CNC(=O)c1nn(C)c2c1C(C)(C)Cc1cnc(Nc3ccc(N4CCN(C)CC4)cc3)nc1-2 [MILCICLIB]
66

Would you mind telling me what Population Healthy Nuclei (%) value was observed for O=C(O)c1ccc2cc(-c3ccc(O)c(C45CC6CC(CC(C6)C4)C5)c3)ccc2c1 [O-DEMETHYLATED ADAPALENE] ?
66

Can you look up the measured Population Healthy Nuclei (%) of CNc1oc(-c2cccc3ccccc23)nc1C#N for me?
67

Could you tell me which Population Healthy Nuclei (%) is on file for CNC(=O)c1cc(Oc2ccc(NC(=O)Nc3cc(C(C)(C)C)nn3-c3ccc4ncccc4c3)c(F)c2)ccn1 [REBASTINIB] ?
88

Recorded Population Healthy Nuclei (%) for CC(=O)c1cc(-c2cc(C(=O)NC3CC3)ccc2C)c2ncccn12 , please?
84

# query: Population Healthy Nuclei (%) of entry Cl.Cl.NC1(c2ccc(-c3nc4ccn5c(=O)[nH]nc5c4cc3-c3ccccc3)cc2)CCC1
81

Quick one: Population Healthy Nuclei (%) of CC(C)(C)c1cnc(CSc2cnc(NC(=O)C3CCNCC3)s2)o1 [BMS-387032] ?
69

Consider the compound CN(C)C/C=C/C(=O)Nc1cc2c(Nc3ccc(F)c(Cl)c3)ncnc2cc1O[C@H]1CCOC1.O=C(O)/C=C\C(=O)O.O=C(O)/C=C\C(=O)O [AFATINIB DIMALEATE] and give its measured Population Healthy Nuclei (%).
85

Which value of Population Healthy Nuclei (%) has been reported for CCOc1cc(N2CCC(O)CC2)ccc1Nc1ncc2c(n1)N(C1CCCC1)CCC(=O)N2C in the records?
86

Name the recorded Population Healthy Nuclei (%) for CC(C)Oc1ccc(C(=O)N[C@H](CNC(=O)CN(C)C)Cc2ccc(-c3cn4cccc([C@H](C)O)c4n3)cc2)cc1Cl [GSK-923295A] .
75

Which value of Population Healthy Nuclei (%) has been reported for Cc1cc2c(cc1N1C(=O)c3cccc4c(CCCO)ccc(c34)C1=O)n(C)c(=O)n2C in the records?
82

What does the data say about its Population Healthy Nuclei (%)? Entry: Cc1nc(Cc2cccc(C(F)(F)F)c2)sc1-c1ccc(C(N)=O)nc1 [TP-024n]
85

Look at this compound and give its reported Population Healthy Nuclei (%). CC(C)N1CCC(C)(C)c2cc(C#Cc3ccc(C(=O)O)cc3)ccc21
74

Find the recorded Population Healthy Nuclei (%) belonging to COc1cc2c(Nc3ccc(NC(=O)c4ccccc4)cc3)ncnc2cc1OCCCN1CCOCC1 and report it.
77

Please report the recorded Population Healthy Nuclei (%) for CCn1c(-c2nonc2N)nc2cnc(Oc3cccc(NC(=O)c4ccc(OCCN5CCOCC5)cc4)c3)cc21 [GSK-269962A] .
64

Please look up its Population Healthy Nuclei (%): CCOc1cc2ncc(C#N)c(Nc3ccc(OCc4cccc(F)c4)c(Cl)c3)c2cc1NC(=O)/C=C/CN(C)C [HKI-357]
86

----------
# System: U2OS
# measurement description: Multiplex assay against U2OS
# Type: toxicity, cell-based
# cond: human, 12 h, 1 µM, compound concentration 1 uM, replicate 2
Kindly supply the reported Population Normal (%) values for the records listed here.
Give your result in % as a bare value.

Find the recorded Population Normal (%) belonging to CNC(=O)c1nn(C)c2c1C(C)(C)Cc1cnc(Nc3ccc(N4CCN(C)CC4)cc3)nc1-2 [MILCICLIB] and report it.
81

State the recorded Population Normal (%) for this entry: N#Cc1cnc(Nc2cc(NC[C@H]3CNCCO3)c(C(F)(F)F)cn2)cn1 [SRA-737]
90

Item under review: CCn1c(-c2nonc2N)nc2cnc(Oc3cccc(NC(=O)c4ccc(OCCN5CCOCC5)cc4)c3)cc21 [GSK-269962A] . Reported Population Normal (%)?
97

Look up Population Normal (%): c1ccc2oc(-c3csc(C4CCN(Cc5nc6ncccc6[nH]5)CC4)n3)cc2c1
92

Report Population Normal (%) for Nc1nc2c(c(N3CCNCC3)n1)CCC1=C2[C@@H]2CCCC[C@@H]2O1 please.
84

----------
# Test system: Fibroblast
# measurement description: Multiplex assay against human fibroblast
# Type: toxicity, cell-based
# cond: 12 h, 10 µM, compound concentration 10 uM, replicate 2
endpoint label: Population Normal (%)
Supply the numeric figure in %, leaving out any unit text.

Need Population Normal (%), item N#Cc1cnc(Nc2cc(NC[C@H]3CNCCO3)c(C(F)(F)F)cn2)cn1
65

Tell me the measured Population Normal (%) of Cl.Cl.Nc1ncnc2c1c(-c1cccc(OCc3ccccc3)c1)cn2[C@H]1C[C@@H](CN2CCC2)C1 , please.
91

Fill blank: measured Population Normal (%) of the compound Cc1nc(Cc2cccc(C(F)(F)F)c2)sc1-c1ccc(C(N)=O)nc1 [TP-024n] is ____.
95

Value lookup for Population Normal (%); key = Nc1nc2c(c(N3CCNCC3)n1)CCC1=C2[C@@H]2CCCC[C@@H]2O1
96

Can you share its Population Normal (%)? I mean this compound: O=C(O)c1ccc2cc(-c3ccc(O)c(C45CC6CC(CC(C6)C4)C5)c3)ccc2c1
97

What value of measured Population Normal (%) is listed for CCc1cc2c(cc1CC)CC(NC[C@H](O)c1ccc(O)c3[nH]c(=O)ccc13)C2 ?
93

Record request: Population Normal (%) value, item CCC(=O)O[C@]1(C(=O)SCF)[C@H](C)C[C@H]2[C@@H]3C[C@H](F)C4=CC(=O)C=C[C@]4(C)[C@@]3(F)[C@@H](O)C[C@@]21C [FLUTICASONE PROPIONATE]
92

For the compound shown here, COc1cc2c(NC3CCN(C(C)C)CC3)nc(N3CCC(F)(F)CC3)nc2cc1OCCCN1CCCC1 , give the reported Population Normal (%).
91

// Population Normal (%) lookup, key: CNc1oc(-c2cccc3ccccc23)nc1C#N
53

Tell me the measured Population Normal (%) of CCn1c(-c2nonc2N)nc2cnc(Oc3cccc(NC(=O)c4ccc(OCCN5CCOCC5)cc4)c3)cc21 [GSK-269962A] , please.
92

Any idea what its Population Normal (%) is? The compound is CCOc1cc2ncc(C#N)c(Nc3ccc(OCc4cccc(F)c4)c(Cl)c3)c2cc1NC(=O)/C=C/CN(C)C
53

I would be grateful if you could share the reported Population Normal (%) for CCOc1cc(N2CCC(O)CC2)ccc1Nc1ncc2c(n1)N(C1CCCC1)CCC(=O)N2C .
70

----------
# Tested on: Fibroblast
# measurement description: Multiplex assay against human fibroblast
# Format: toxicity, cell-based
# cond: 12 h, 10 µM, compound concentration 10 uM, replicate 2
endpoint label: Population Tubulin-Different-Phenotype (%)
Form entry: value (%) — number only.

Given the entry CNc1oc(-c2cccc3ccccc23)nc1C#N , report its measured Population Tubulin-Different-Phenotype (%).
24

Fill blank: measured Population Tubulin-Different-Phenotype (%) of the molecule N#Cc1cnc(Nc2cc(NC[C@H]3CNCCO3)c(C(F)(F)F)cn2)cn1 is ____.
21

# get_value(readout='Population Tubulin-Different-Phenotype (%)', item= CN(C)CCOc1ccc(-c2nc(-c3ccncc3)c(-c3ccc4c(c3)CC/C4=N\O)[nH]2)cc1 )
22

Which measured Population Tubulin-Different-Phenotype (%) value corresponds to Cc1cc2c(cc1N1C(=O)c3cccc4c(CCCO)ccc(c34)C1=O)n(C)c(=O)n2C ?
96

I am curious: what Population Tubulin-Different-Phenotype (%) value has been reported for CCC(=O)O[C@]1(C(=O)SCF)[C@H](C)C[C@H]2[C@@H]3C[C@H](F)C4=CC(=O)C=C[C@]4(C)[C@@]3(F)[C@@H](O)C[C@@]21C [FLUTICASONE PROPIONATE] ?
35

// returns reported Population Tubulin-Different-Phenotype (%) for input c1ccc2oc(-c3csc(C4CCN(Cc5nc6ncccc6[nH]5)CC4)n3)cc2c1
0

Dear colleague, I am looking for the recorded Population Tubulin-Different-Phenotype (%) of the following molecule: CCc1cc2c(cc1CC)CC(NC[C@H](O)c1ccc(O)c3[nH]c(=O)ccc13)C2
88

Population Tubulin-Different-Phenotype (%) for CC(=O)c1cc(-c2cc(C(=O)NC3CC3)ccc2C)c2ncccn12 ?
17

What value of measured Population Tubulin-Different-Phenotype (%) is listed for CCOc1cc(N2CCC(O)CC2)ccc1Nc1ncc2c(n1)N(C1CCCC1)CCC(=O)N2C ?
18

Consider the molecule shown here: CN(C)C/C=C/C(=O)Nc1cc2c(Nc3ccc(F)c(Cl)c3)ncnc2cc1O[C@H]1CCOC1.O=C(O)/C=C\C(=O)O.O=C(O)/C=C\C(=O)O [AFATINIB DIMALEATE] What is its recorded Population Tubulin-Different-Phenotype (%)?
91

May I ask what Population Tubulin-Different-Phenotype (%) has been recorded for CNC(=O)c1cc(Oc2ccc(NC(=O)Nc3cc(C(C)(C)C)nn3-c3ccc4ncccc4c3)c(F)c2)ccn1 ?
50
